Collected IC50 values appear next to each entry.
Test system: HT-29
Experiment: Antiproliferative activity against human HT-29 cells assessed as cell growth inhibition after 48 hrs by MTT assay
Format: functional, cell-based
Conditions: HT-29, 48 h
Metric Name: IC50 (µM)

molecule_smiles=Cc1ccc(NC(=S)NC(=O)c2ccc(OCc3ccc(Cl)cc3Cl)cc2)cc1-c1nc2ccccc2[nH]1 measured_value=11.6
molecule_smiles=Cc1ccc(NC(=O)NC(=O)c2ccc(OCc3ccc(Cl)c(Cl)c3)cc2)cc1-c1nc2ccccc2[nH]1 measured_value=1.03
molecule_smiles=O=C(NC(=S)Nc1ccc(Cl)c(-c2nc3ccccc3[nH]2)c1)c1ccc(OCc2ccc(Cl)cc2Cl)cc1 measured_value=6.08
molecule_smiles=O=C(NC(=O)c1ccc(OCc2ccc(F)cc2)cc1)Nc1ccc(Cl)c(-c2nc3ccccc3[nH]2)c1 measured_value=0.73
molecule_smiles=Cc1ccc(NC(=S)NC(=O)c2ccc(OCc3ccc(F)cc3)cc2)cc1-c1nc2ccccc2[nH]1 measured_value=1.91
molecule_smiles=Cc1ccc(NC(=O)NC(=O)c2ccc(OCc3ccccc3Cl)cc2)cc1-c1nc2ccccc2[nH]1 measured_value=9.01
molecule_smiles=Cc1ccc(NC(=O)NC(=O)c2ccc(OCc3cccc(C(F)(F)F)c3)cc2)cc1-c1nc2ccccc2[nH]1 measured_value=3.52
molecule_smiles=Cc1ccc(NC(=O)NC(=O)c2ccc(OCc3ccc(Cl)cc3Cl)cc2)cc1-c1nc2ccccc2[nH]1 measured_value=2.62
molecule_smiles=Cc1ccc(COc2ccc(C(=O)NC(=O)Nc3ccc(Cl)c(-c4nc5ccccc5[nH]4)c3)cc2)cc1 measured_value=2.95
molecule_smiles=O=C(NC(=S)Nc1ccc(Cl)c(-c2nc3ccccc3[nH]2)c1)c1ccc(OCc2ccc(Cl)c(Cl)c2)cc1 measured_value=4.93
molecule_smiles=O=C(NC(=O)c1ccc(OCc2ccccc2F)cc1)Nc1ccc(Cl)c(-c2nc3ccccc3[nH]2)c1 measured_value=0.59
molecule_smiles=Cc1ccc(NC(=S)NC(=O)c2ccc(OCc3cccc(C(F)(F)F)c3)cc2)cc1-c1nc2ccccc2[nH]1 measured_value=8.2
molecule_smiles=Cc1ccc(NC(=O)NC(=O)c2ccc(OCc3ccccc3)cc2)cc1-c1nc2ccccc2[nH]1 measured_value=16.4
molecule_smiles=Cc1ccc(NC(=S)NC(=O)c2ccc(OCc3ccccc3)cc2)cc1-c1nc2ccccc2[nH]1 measured_value=28.8
molecule_smiles=Cc1ccc(NC(=S)NC(=O)c2ccc(OCc3cccc(F)c3)cc2)cc1-c1nc2ccccc2[nH]1 measured_value=55.3
molecule_smiles=Cc1ccc(NC(=S)NC(=O)c2ccc(OCc3cccc(Cl)c3)cc2)cc1-c1nc2ccccc2[nH]1 measured_value=35.3
molecule_smiles=Cc1ccc(NC(=O)NC(=O)c2ccc(OCc3cccc(F)c3)cc2)cc1-c1nc2ccccc2[nH]1 measured_value=38.2
molecule_smiles=Cc1ccc(NC(=O)NC(=O)c2ccc(OCc3ccc(F)cc3)cc2)cc1-c1nc2ccccc2[nH]1 measured_value=0.98
molecule_smiles=Cc1ccc(NC(=O)NC(=O)c2ccc(OCc3cccc(Cl)c3Cl)cc2)cc1-c1nc2ccccc2[nH]1 measured_value=48.5
molecule_smiles=Cc1ccc(NC(=S)NC(=O)c2ccc(OCc3ccccc3F)cc2)cc1-c1nc2ccccc2[nH]1 measured_value=1.87
molecule_smiles=Cc1ccc(NC(=S)NC(=O)c2ccc(OCc3ccc(C(F)(F)F)cc3)cc2)cc1-c1nc2ccccc2[nH]1 measured_value=17.6
molecule_smiles=Cc1ccc(COc2ccc(C(=O)NC(=S)Nc3ccc(C)c(-c4nc5ccccc5[nH]4)c3)cc2)cc1 measured_value=14.2
molecule_smiles=Cc1ccc(NC(=O)NC(=O)c2ccc(OCc3ccccc3F)cc2)cc1-c1nc2ccccc2[nH]1 measured_value=0.76
molecule_smiles=COc1cc(C(=O)NC(=S)Nc2cccc(NC(=O)c3ccccc3)c2)cc(OC)c1OC measured_value=6.61
molecule_smiles=O=C(NC(=S)Nc1ccc(Cl)c(-c2nc3ccccc3[nH]2)c1)c1ccc(OCc2ccc(C(F)(F)F)cc2)cc1 measured_value=12.9
molecule_smiles=Cc1ccc(NC(=S)NC(=O)c2ccc(OCc3ccc(Cl)c(Cl)c3)cc2)cc1-c1nc2ccccc2[nH]1 measured_value=6.27
molecule_smiles=Cc1ccc(NC(=O)NC(=O)c2ccc(OCc3cccc(Cl)c3)cc2)cc1-c1nc2ccccc2[nH]1 measured_value=15.4
molecule_smiles=Cc1ccc(NC(=S)NC(=O)c2ccc(OCc3cccc(Cl)c3Cl)cc2)cc1-c1nc2ccccc2[nH]1 measured_value=63.7
molecule_smiles=Cc1ccc(NC(=O)NC(=O)c2ccc(OCc3ccc(C(F)(F)F)cc3)cc2)cc1-c1nc2ccccc2[nH]1 measured_value=7.83
molecule_smiles=Cc1ccc(COc2ccc(C(=O)NC(=O)Nc3ccc(C)c(-c4nc5ccccc5[nH]4)c3)cc2)cc1 measured_value=5.11
molecule_smiles=Cc1ccc(NC(=S)NC(=O)c2ccc(OCc3ccccc3Cl)cc2)cc1-c1nc2ccccc2[nH]1 measured_value=23.7
molecule_smiles=CS(=O)(=O)c1ccc(C(=O)Nc2ccc(Cl)c(-c3ccccn3)c2)c(Cl)c1 measured_value=1.08

----------
Entries and their measured IC50 follow.
Test: Antiproliferative activity against human […] cells assessed as cell growth inhibition after 48 hrs by MTT assay
Format: functional, cell-based
Metric Name: IC50 (µM)

molecule_smiles=O=C(NC(=O)c1ccc(OCc2ccccc2F)cc1)Nc1ccc(Cl)c(-c2nc3ccccc3[nH]2)c1 unit_symbol=µM measured_value=0.87
molecule_smiles=Cc1ccc(COc2ccc(C(=O)NC(=O)Nc3ccc(C)c(-c4nc5ccccc5[nH]4)c3)cc2)cc1 unit_symbol=µM measured_value=6.36
molecule_smiles=O=C(NC(=S)Nc1ccc(Cl)c(-c2nc3ccccc3[nH]2)c1)c1ccc(OCc2ccc(Cl)cc2Cl)cc1 unit_symbol=µM measured_value=3.75
molecule_smiles=Cc1ccc(NC(=O)NC(=O)c2ccc(OCc3cccc(Cl)c3Cl)cc2)cc1-c1nc2ccccc2[nH]1 unit_symbol=µM measured_value=87

----------
Test: Antiproliferative activity against human […] cells assessed as cell growth inhibition after 48 hrs by MTT assay
Format: functional, cell-based
Rule: IC50 below 20 µM gives 1 (yes), anything at or above gives 0 (no).

molecule_smiles=Cc1ccc(COc2ccc(C(=O)NC(=S)Nc3ccc(C)c(-c4nc5ccccc5[nH]4)c3)cc2)cc1 group="1 (yes)"
molecule_smiles=Cc1ccc(NC(=S)NC(=O)c2ccc(OCc3cccc(Cl)c3)cc2)cc1-c1nc2ccccc2[nH]1 group="0 (no)"
molecule_smiles=Cc1ccc(NC(=O)NC(=O)c2ccc(OCc3ccc(Cl)cc3Cl)cc2)cc1-c1nc2ccccc2[nH]1 group="1 (yes)"
molecule_smiles=Cc1ccc(NC(=S)NC(=O)c2ccc(OCc3ccccc3Cl)cc2)cc1-c1nc2ccccc2[nH]1 group="0 (no)"
molecule_smiles=Cc1ccc(NC(=O)NC(=O)c2ccc(OCc3cccc(F)c3)cc2)cc1-c1nc2ccccc2[nH]1 group="0 (no)"
molecule_smiles=O=C(NC(=O)c1ccc(OCc2ccc(F)cc2)cc1)Nc1ccc(Cl)c(-c2nc3ccccc3[nH]2)c1 group="1 (yes)"
molecule_smiles=Cc1ccc(NC(=S)NC(=O)c2ccc(OCc3cccc(F)c3)cc2)cc1-c1nc2ccccc2[nH]1 group="0 (no)"
molecule_smiles=Cc1ccc(NC(=O)NC(=O)c2ccc(OCc3ccccc3Cl)cc2)cc1-c1nc2ccccc2[nH]1 group="0 (no)"

----------
Here the recorded pIC50 is given for each entry.
Test: Antiproliferative activity against human […] cells assessed as cell growth inhibition after 48 hrs by MTT assay
Type: functional, cell-based
pIC50: −log10 of the molar value.
Metric Name: pIC50

molecule_smiles=Cc1ccc(NC(=S)NC(=O)c2ccc(OCc3ccc(Cl)cc3Cl)cc2)cc1-c1nc2ccccc2[nH]1 value_operator== measured_value=5.28
molecule_smiles=Cc1ccc(COc2ccc(C(=O)NC(=O)Nc3ccc(Cl)c(-c4nc5ccccc5[nH]4)c3)cc2)cc1 value_operator== measured_value=5.50
molecule_smiles=O=C(NC(=S)Nc1ccc(Cl)c(-c2nc3ccccc3[nH]2)c1)c1ccc(OCc2ccc(Cl)c(Cl)c2)cc1 value_operator== measured_value=5.34
molecule_smiles=O=C(NC(=S)Nc1ccc(Cl)c(-c2nc3ccccc3[nH]2)c1)c1ccc(OCc2ccc(C(F)(F)F)cc2)cc1 value_operator== measured_value=5.11
molecule_smiles=CS(=O)(=O)c1ccc(C(=O)Nc2ccc(Cl)c(-c3ccccn3)c2)c(Cl)c1 value_operator== measured_value=5.54
molecule_smiles=Cc1ccc(NC(=S)NC(=O)c2ccc(OCc3cccc(Cl)c3Cl)cc2)cc1-c1nc2ccccc2[nH]1 value_operator=< measured_value=4.00
molecule_smiles=Cc1ccc(NC(=S)NC(=O)c2ccc(OCc3ccccc3F)cc2)cc1-c1nc2ccccc2[nH]1 value_operator== measured_value=5.62
molecule_smiles=Cc1ccc(NC(=O)NC(=O)c2ccc(OCc3ccc(F)cc3)cc2)cc1-c1nc2ccccc2[nH]1 value_operator== measured_value=6.62

----------
Assay: Antiproliferative activity against human […] cells assessed as cell growth inhibition after 48 hrs by MTT assay
Format: functional, cell-based
Metric Name: log10 of IC50 (log10 of the value in µM)

molecule_smiles=COc1cc(C(=O)NC(=S)Nc2cccc(NC(=O)c3ccccc3)c2)cc(OC)c1OC metric_name="log10 of IC50" measured_value=1.14
molecule_smiles=Cc1ccc(NC(=S)NC(=O)c2ccc(OCc3ccccc3)cc2)cc1-c1nc2ccccc2[nH]1 metric_name="log10 of IC50" measured_value=1.76
molecule_smiles=Cc1ccc(NC(=S)NC(=O)c2ccc(OCc3cccc(C(F)(F)F)c3)cc2)cc1-c1nc2ccccc2[nH]1 metric_name="log10 of IC50" measured_value=0.78
molecule_smiles=Cc1ccc(NC(=O)NC(=O)c2ccc(OCc3ccccc3)cc2)cc1-c1nc2ccccc2[nH]1 metric_name="log10 of IC50" measured_value=1.55
molecule_smiles=Cc1ccc(NC(=S)NC(=O)c2ccc(OCc3ccc(F)cc3)cc2)cc1-c1nc2ccccc2[nH]1 metric_name="log10 of IC50" measured_value=0.63
molecule_smiles=Cc1ccc(NC(=O)NC(=O)c2ccc(OCc3ccc(C(F)(F)F)cc3)cc2)cc1-c1nc2ccccc2[nH]1 metric_name="log10 of IC50" measured_value=1.23
molecule_smiles=Cc1ccc(NC(=O)NC(=O)c2ccc(OCc3ccccc3F)cc2)cc1-c1nc2ccccc2[nH]1 metric_name="log10 of IC50" measured_value=0.26
molecule_smiles=Cc1ccc(NC(=O)NC(=O)c2ccc(OCc3cccc(C(F)(F)F)c3)cc2)cc1-c1nc2ccccc2[nH]1 metric_name="log10 of IC50" measured_value=0.98
